test system: OVCAR-8 ovarian; test: NCI-60 one-dose screen, 48 h (100 = growth as untreated, 0 = no growth, -100 = all killed); settings: 10 µM unless noted
About 83,000 compounds went through this panel and 20% of them were active in at least one assay; those are over-represented in the sample as a whole.
Exercise: for every item that follows, state its recorded growth.
Write the value in % as a bare number.

Enquiry: Report measured growth; entry is COC(=O)CC12CC(NC(=O)c3csc([C@@H](C[C@H](C(C)C)N(C)C(=O)[C@@H](NC(=O)[C@H]4CCCCN4C)C(C)C)OC(C)=O)n3)(C1)C2
Return: 30.5

Enquiry: Find the measured growth of COc1ccc(N(CC(=O)NCCC[Te]c2ccccc2)C(=O)CCSC2=C(C)C(=O)c3ccccc3C2=O)cc1 and report it.
Return: 8.05

Enquiry: Please give measured growth of the following entry: CCN(CC)CCOC(=O)C(OC(C)C)(c1ccccc1)c1ccccc1
Return: 106

Enquiry: Fill in growth for record Cn1cc(C=O)c2nccnc21
Return: 104

Enquiry: Annotate the compound CN[C@@]1(c2ccccc2Cl)CCCC[C@@H]1NCC1CCCO1 (some centres not stated) with its measured growth.
Return: 102

Enquiry: Tell me measured growth for COC(=O)[C@@H](C)C[C@H](Cc1ccccc1)NC(=O)c1csc([C@@H](C[C@H](C(C)C)N(C)C(=O)[C@H](C)NC(=O)[C@H]2CCCN2C)OC(C)=O)n1 please.
Return: 58.3

Enquiry: Consider the compound C=C1C[C@](OC)([C@H](O)C(=O)N[C@@H](OC)[C@@H]2C[C@@H](O)C(C)(C)[C@@H](C[C@@H](COC)OC)O2)O[C@H](C)[C@@H]1C . State its measured growth.
Return: -20.8

Enquiry: Specify reported growth for the compound shown: CCN1C(=O)C(=C/C=C/c2ccccc2)C(=O)N(CC)C1=O
Return: 54

Enquiry: Provide measured growth value, entry: COC(=O)[C@H](Cc1ccccc1)NC(=O)c1csc([C@@H](C[C@H](C(C)C)N(C)C(=O)[C@@H](NC(=O)[C@H]2CCCCN2C)C2CC2)OC(C)=O)n1
Return: 17

Enquiry: Give the value of growth reported for the following: COC(=O)[C@@H](C)C[C@H](Cc1ccc(F)cc1)NC(=O)c1csc([C@@H](C[C@H](C(C)C)N(C)C(=O)[C@@H](NC(=O)[C@H]2CCCCN2C)C(C)C)OC(C)=O)n1
Return: 30

Enquiry: Quick one: give measured growth for COC(=O)N[C@H]1CCc2c(Br)c(OC)c(OC)c(OC)c2-c2ccc(SC)c(=O)cc21
Return: 14.8

Enquiry: Give a short answer stating reported growth for O=C1NC(=O)C(=Cc2ccc(OCCCCC3CCCCC3)c(Cl)c2)C(=O)N1 .
Return: 101

Enquiry: Provide one value: measured growth of Nc1ccc(Cl)cc1
Return: 97.4

Enquiry: Report growth for O=C(Nc1ccc(O)cc1)C(Cl)(Cl)Cl
Return: 97.1

Enquiry: Give the measured growth for CC(C)[C@]12O[C@H]1[C@@H]1O[C@]13[C@]1(O[C@H]1C[C@H]1c4c(C(=O)c5ccccc5)oc(OC(=O)c5ccccc5)c4CC[C@@]13C)[C@@H]2O
Return: 6.13

Enquiry: Please give the documented growth of CC(C)(C)C(=O)OCOP(=O)(NCc1ccccc1)C1CCCN(O)C1=O (configuration not stated)
Return: 14.2

Enquiry: Note growth for the compound shown: COc1ccc(/C=C\c2cc(OC)c(OC)c(OC)c2)cc1NC(=O)/C=C/c1ccc(OC)c(OC)c1
Return: 44.4
